Target: Sushi domains (SD1/2) protein of the GABAB1a (GB1a) subunit, recombinant
Sequence (Q9Z0U4 29-158): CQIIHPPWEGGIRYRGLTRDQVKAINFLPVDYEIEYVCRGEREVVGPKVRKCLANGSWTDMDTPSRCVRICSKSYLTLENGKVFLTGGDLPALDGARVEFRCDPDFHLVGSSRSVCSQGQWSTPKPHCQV
Test: FP competition
Starred links: 1 amine or outer side, 2 acyl side, 3 side chain; linkers in the order of their positions; H or OH if unused. Non-standard residues stand in square brackets, D forms with d. Obtyr = O-benzyl-L-tyrosine, O=C([C@H](Cc1ccc(OCc2ccccc2)cc1)N[*:1])[*:2]
metric.name: Ki (nM)
The answer is to be given in nM; state only the numeric part.

Request: Request the reported Ki associated with Ac-EDDD[Obtyr]IDWGPTSDDD-NH2 (SMILES CC[C@H](C)[C@H](NC(=O)[C@H](Cc1ccc(OCc2ccccc2)cc1)NC(=O)[C@H](CC(=O)O)NC(=O)[C@H](CC(=O)O)NC(=O)[C@H](CC(=O)O)NC(=O)[C@H](CCC(=O)O)NC(C)=O)C(=O)N[C@@H](CC(=O)O)C(=O)N[C@@H](Cc1c[nH]c2ccccc12)C(=O)NCC(=O)N1CCC[C@H]1C(=O)N[C@H](C(=O)N[C@@H](CO)C(=O)N[C@@H](CC(=O)O)C(=O)N[C@@H](CC(=O)O)C(=O)N[C@@H](CC(=O)O)C(N)=O)[C@@H](C)O) [peptide 35 (Ac-EDDD(Obtyr)…-NH2)]
Result: 9.5
